# assayed target: 5-hydroxytryptamine receptor 6 (Homo sapiens)
# Sequence (P50406 whole entry): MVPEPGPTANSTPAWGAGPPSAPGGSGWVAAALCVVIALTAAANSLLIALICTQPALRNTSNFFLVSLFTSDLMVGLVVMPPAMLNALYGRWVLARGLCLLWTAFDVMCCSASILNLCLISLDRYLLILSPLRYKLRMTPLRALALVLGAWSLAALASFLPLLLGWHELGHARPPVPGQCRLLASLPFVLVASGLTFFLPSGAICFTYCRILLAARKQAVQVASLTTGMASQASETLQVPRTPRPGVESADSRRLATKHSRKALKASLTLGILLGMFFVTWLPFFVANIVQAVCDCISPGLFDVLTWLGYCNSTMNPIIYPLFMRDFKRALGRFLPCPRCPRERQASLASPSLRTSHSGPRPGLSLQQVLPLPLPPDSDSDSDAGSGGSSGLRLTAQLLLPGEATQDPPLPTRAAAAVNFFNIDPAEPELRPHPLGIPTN
# assay summary: Displacement of [3H]LSD form human recombinant 5HT6 receptor
pKi: −log10 of the molar value.
measured quantity: pKi

INSERT INTO results (compound, assayed_target, measured_quantity, qualifier_sign, numeric_value) VALUES
  ('CN(C)S(=O)(=O)NC[C@@H]1CCCc2cc(S(=O)(=O)c3cccc(F)c3)ccc21', '5-hydroxytryptamine receptor 6 (Homo sapiens)', 'pKi', '=', 8.70),
  ('COCC(=O)NC[C@@H]1CCCc2cc(S(=O)(=O)c3cccc(F)c3)ccc21', '5-hydroxytryptamine receptor 6 (Homo sapiens)', 'pKi', '=', 9.10),
  ('O=S(=O)(c1cccc(F)c1)c1ccc2c(c1)CCC[C@H]2CNCCO', '5-hydroxytryptamine receptor 6 (Homo sapiens)', 'pKi', '=', 9.90),
  ('CN(C)C(=O)NC[C@@H]1CCCc2cc(S(=O)(=O)c3cccc(F)c3)ccc21', '5-hydroxytryptamine receptor 6 (Homo sapiens)', 'pKi', '=', 8.60),
  ('COc1cccc(S(=O)(=O)c2ccc3c(c2)CCC[C@H]3CN)c1', '5-hydroxytryptamine receptor 6 (Homo sapiens)', 'pKi', '=', 9.40),
  ('O=S(=O)(O)CCCNC[C@@H]1CCCc2cc(S(=O)(=O)c3cccc(F)c3)ccc21', '5-hydroxytryptamine receptor 6 (Homo sapiens)', 'pKi', '=', 8.90),
  ('CNC(=O)NC[C@@H]1CCCc2cc(S(=O)(=O)c3cccc(F)c3)ccc21', '5-hydroxytryptamine receptor 6 (Homo sapiens)', 'pKi', '=', 9.40),
  ('N=C(N)NC(=O)C[C@@H]1CCCc2cc(S(=O)(=O)c3cccc(F)c3)ccc21', '5-hydroxytryptamine receptor 6 (Homo sapiens)', 'pKi', '=', 9.20),
  ('CN(C)CC(=O)NC[C@@H]1CCCc2cc(S(=O)(=O)c3cccc(F)c3)ccc21', '5-hydroxytryptamine receptor 6 (Homo sapiens)', 'pKi', '=', 9.40),
  ('NC[C@@H]1CCCc2cc(S(=O)(=O)c3cc[nH]c3)ccc21', '5-hydroxytryptamine receptor 6 (Homo sapiens)', 'pKi', '=', 9.50),
  ('CC(=N)NCC1CCCc2cc(S(=O)(=O)c3ccccc3)ccc21 (stereo unspecified)', '5-hydroxytryptamine receptor 6 (Homo sapiens)', 'pKi', '=', 9.20),
  ('NC(=O)NC[C@@H]1CCCc2cc(S(=O)(=O)c3cccc(F)c3)cc(F)c21', '5-hydroxytryptamine receptor 6 (Homo sapiens)', 'pKi', '=', 9.70),
  ('O=C1CN=C(NC[C@@H]2CCCc3cc(S(=O)(=O)c4cccc(F)c4)ccc32)N1', '5-hydroxytryptamine receptor 6 (Homo sapiens)', 'pKi', '=', 10.00),
  ('CS(=O)(=O)c1cccc(S(=O)(=O)c2ccc3c(c2)CCC[C@H]3CN)c1', '5-hydroxytryptamine receptor 6 (Homo sapiens)', 'pKi', '=', 8.40),
  ('Cn1ccc(S(=O)(=O)c2ccc3c(c2)CCC[C@H]3CN)c1', '5-hydroxytryptamine receptor 6 (Homo sapiens)', 'pKi', '=', 8.10),
  ('CN(CC(N)=O)C[C@@H]1CCCc2cc(S(=O)(=O)c3cccc(F)c3)ccc21', '5-hydroxytryptamine receptor 6 (Homo sapiens)', 'pKi', '=', 8.90),
  ('NC[C@@H]1CCCc2cc(S(=O)(=O)c3cc(F)cc4[nH]cnc34)ccc21', '5-hydroxytryptamine receptor 6 (Homo sapiens)', 'pKi', '=', 8.30),
  ('NC[C@@H]1CCCc2cc(S(=O)(=O)C3CCCCC3)ccc21', '5-hydroxytryptamine receptor 6 (Homo sapiens)', 'pKi', '<', 6.00),
  ('O=S(=O)(c1cccc(F)c1)c1ccc2c(c1)CCC[C@H]2CN1CC(O)C1', '5-hydroxytryptamine receptor 6 (Homo sapiens)', 'pKi', '=', 10.00),
  ('NC[C@@H]1CCCc2cc(S(=O)(=O)c3ccccc3)ccc21', '5-hydroxytryptamine receptor 6 (Homo sapiens)', 'pKi', '=', 9.80),
  ('O=S(=O)(c1ccccc1)c1ccc2c(c1)CCCC2CNc1ncccn1 (stereo unspecified)', '5-hydroxytryptamine receptor 6 (Homo sapiens)', 'pKi', '=', 7.60);
